Reported TGI values for a set of compounds
System: SN12C renal
assay: NCI tumour cell line growth inhibition, 48 h

As a guide, the following entries are already answered.
{"compound": "CCOC(=O)N(CC)c1c(C(F)(F)F)cc(-c2ccccc2)[nH]c1=O", "systemUnderTest": "SN12C renal", "result": "> 100 µM"}
{"compound": "CCOC(OCC)C(CCc1ccccc1)c1c(N)nc(N)[nH]c1=O (centres undefined)", "systemUnderTest": "SN12C renal", "result": "> 100 µM"}
{"compound": "O=c1c2cc(-c3ccccc3)cnc2sn1-c1ccc([N+](=O)[O-])cc1", "systemUnderTest": "SN12C renal", "result": "> 100 µM"}

Switching to the query record.
Query: Look up TGI of CC(O)(c1ccccc1)c1nccc2ccccc12 (centres undefined) and report it.
Result: > 100 µM
